As shown below, each of these compounds has a reported Emax value.
- Target Or System: M1 muscarinic receptor (Homo sapiens, UniProt P11229)
- Construct: expressed in transfected cells; host or cells: CHO cells (M1-CHO, under zeocin and G418 selection)
- Protocol Text: Functional mobilization of intracellular calcium (FLIPR, Fluo-3), M1-CHO cells
- Format: cell-based
- Details: compound nos. 1-454; 100% efficacy is the maximum response obtained with the Carbachol control; read-out: M1 Efficacy

- Compound: "CCOC(=O)N1CCC(N2CCC3(CC2)CN(C(=O)N(C)c2ccccc2)c2ccc(F)cc23)CC1"
  Emax: "65 to 85%"
- Compound: "CCOC(=O)N1C2CCC1CC(N1CCC3(CC1)CN(C(=O)c1cc(C)n(C)n1)c1ccc(F)cc13)C2 (centres unmarked)"
  Emax: "> 85%"
- Compound: "CC(=O)N1CC2(CCN(CC3CCCCC3)CC2)c2cc(F)ccc21"
  Emax: "65 to 85%"

State the recorded Emax for this entry: `Clc1ccc2c(c1)C1(CCN(C3CCCCC3)CC1)CN2`
> 85%

Then what about the compound `CC(=O)N[C@H]1CC2(CCN(C3CCOCC3)CC2)c2ccccc21` ?
65 to 85%

Item: `CN([C@H]1CC2(CCN(C[C@H]3C[C@H]4CC[C@H]3C4)CC2)c2ccccc21)S(C)(=O)=O`
< 65%

Can you handle `CC(=O)N(C)[C@H]1CC2(CCN(C[C@H]3C[C@H]4CC[C@@H]3C4)CC2)c2ccccc21` next?
> 85%

Can you handle `CC(C)OC(=O)N1CCC(N2CCC3(CC2)CN(C(=O)N(C)C)c2ccc(F)cc23)CC1` next?
> 85%

* * *

- Target Or System: M4 muscarinic receptor (Homo sapiens)
- Construct: expressed in transfected cells; host or cells: CHO cells (M4-CHO, under puromycin, zeocin and blasticidin selection)
- Sequence (P08173 whole entry): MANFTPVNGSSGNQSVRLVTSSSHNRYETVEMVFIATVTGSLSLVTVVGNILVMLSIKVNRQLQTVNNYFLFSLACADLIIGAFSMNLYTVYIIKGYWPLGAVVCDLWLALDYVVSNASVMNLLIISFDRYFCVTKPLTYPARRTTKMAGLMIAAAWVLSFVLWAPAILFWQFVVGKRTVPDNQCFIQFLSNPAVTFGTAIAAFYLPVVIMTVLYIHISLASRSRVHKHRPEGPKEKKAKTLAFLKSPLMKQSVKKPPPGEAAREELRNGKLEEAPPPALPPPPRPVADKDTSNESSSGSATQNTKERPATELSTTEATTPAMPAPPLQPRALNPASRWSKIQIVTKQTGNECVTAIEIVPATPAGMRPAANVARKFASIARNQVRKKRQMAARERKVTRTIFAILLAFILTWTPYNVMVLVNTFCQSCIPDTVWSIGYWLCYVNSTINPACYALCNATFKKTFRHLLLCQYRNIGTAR
- Protocol Text: Functional mobilization of intracellular calcium (FLIPR, Fluo-3), M4-CHO cells
- Type: cell-based
- Details: compound nos. 1-454; 100% efficacy is the maximum response obtained with the Carbachol control; read-out: M4 Efficacy
Parameter: Emax. Scope: all listed entries.

Tell me reported Emax for `CCOC(=O)N1CCC(N2CCC3(CC2)CN(C(=O)C2CCCCC2)c2ccc(F)cc23)CC1` , tested with M4 muscarinic receptor (Homo sapiens).
55 to 70%

How about this molecule: `CCOC(=O)N1CCC(N2CCC3(CC2)CN(C(C)=O)c2ccc(-c4ccncc4)cc23)CC1`
< 55%

Consider next the molecule `Fc1ccc2c(c1)C1(CCN(CC3CCCCC3)CC1)CN2` in the same way.
55 to 70%

// same read-out, input: CC(=O)NC1CC2(CCN(C[C@H]3C[C@H]4CC[C@H]3C4)CC2)c2ccccc21 (some centres unmarked)
> 70%

Thanks! And `CCOC(=O)N1CCC(N2CCC3(CC2)CN(C(=O)c2ccc(C)cc2)c2ccc(F)cc23)CC1` ?
< 55%

Please give the result for `CCOC(=O)N1CCC(N2CCC3(CC2)CN(C(=O)OC)c2ccc(F)cc23)CC1` too.
> 70%

Param item: Cc1ccc2c(c1)C1(CCN(C3C4CCCC3CCC4)CC1)CN2 (centres unmarked)
55 to 70%

Entry `CCOC(=O)N1CCC(N2CCC3(CC2)CN(C(=O)c2cccc(F)c2)c2ccc(F)cc23)CC1` please
< 55%

Now the same for CCOC(=O)N1CCC(N2CCC3(CC2)CN(C(C)=O)c2ccc(F)cc23)C1 (centres unmarked)
< 55%

Next record, please: `O=C1CC2(CCN(C3CCCCCC3)CC2)c2ccccc2N1`
> 70%

Now consider `CCOC(=O)N1CCC(N2CCC3(CC2)CN(C(C)=O)c2ccc(OC)cc23)CC1` .
< 55%

Then what about the molecule CCCC1CCC(N2CCC3(CC2)CNc2ccc(Cl)cc23)CC1 (centres unmarked) ?
< 55%

What would you report for `CCOC(=O)N1CCC(N2CCC3(CC2)CN(C(=O)c2ccc(OC(F)(F)F)cc2)c2ccc(F)cc23)CC1` ?
> 70%

Follow-up item: `CC(=O)N[C@H]1CC2(CCN(C3CCCCC3)CC2)c2ccccc21`
< 55%

Then this molecule: O=C(O[C@@H]1CCOC1)N1CC2(CCN(C3CC4CCC(C3)N4C(=O)O[C@H]3CCOC3)CC2)c2cc(F)ccc21 (some centres unmarked)
< 55%

Now the molecule O=C(OC1CCC1)N1C2CCC1CC(N1CCC3(CCc4ccccc43)CC1)C2 (centres unmarked)
< 55%

What do we get for CCOC(=O)N1C2CCC1CC(N1CCC3(CC1)C(=O)N(C)c1ccccc13)C2 (centres unmarked) ?
> 70%

Same lookup for `CCCOC(=O)N1CCC(N2CCC3(CC2)CN(C(C)=O)c2ccc(C)cc23)CC1` , please.
55 to 70%

* * *

- Target Or System: M1 muscarinic receptor (Homo sapiens)
- Construct: expressed in transfected cells; host or cells: CHO cells (M1-CHO, under zeocin and G418 selection)
- Sequence (P11229 1-460): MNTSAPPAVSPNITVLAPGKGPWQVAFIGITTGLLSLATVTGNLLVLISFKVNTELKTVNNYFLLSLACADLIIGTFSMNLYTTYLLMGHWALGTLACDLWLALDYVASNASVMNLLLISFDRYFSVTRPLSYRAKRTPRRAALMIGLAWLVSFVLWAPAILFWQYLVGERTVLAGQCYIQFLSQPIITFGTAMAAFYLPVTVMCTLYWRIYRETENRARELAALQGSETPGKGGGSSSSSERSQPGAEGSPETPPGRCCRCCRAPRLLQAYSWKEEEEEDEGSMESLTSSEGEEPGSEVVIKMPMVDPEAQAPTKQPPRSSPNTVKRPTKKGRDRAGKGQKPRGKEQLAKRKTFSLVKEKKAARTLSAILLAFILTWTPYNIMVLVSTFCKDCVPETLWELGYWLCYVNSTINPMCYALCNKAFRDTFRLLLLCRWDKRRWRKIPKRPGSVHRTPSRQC
- Protocol Text: Functional mobilization of intracellular calcium (FLIPR, Fluo-3), M1-CHO cells
- Format: cell-based
- Details: compound nos. 1-454; 100% efficacy is the maximum response obtained with the Carbachol control; read-out: M1 Efficacy
- Procedure: CHO cells expressing muscarinic receptors (M1 to M5) are grown as monolayers in tissue culture flasks at 37° C. in a humidified atmosphere containing 5% CO2 and passaged every 3-5 days. […] The potency, efficacy and selectivity of the muscarinic compounds were evaluated by screening the compound activity across the whole family (M1 to M5 cells). […]
Measured Attribute: Emax

- Compound: "CCOC(=O)N1CCC(N2CCC3(CC2)CN(C(=O)c2ccno2)c2ccc(F)cc23)CC1 [compound 321]"
  Target Or System: "M1 muscarinic receptor (Homo sapiens)"
  Emax: "65 to 85%"
- Compound: "Cc1cc(C(=O)N2CC3(CCN(C4CC5CCC(C4)N5C(=O)OC(C)C)CC3)c3cc(F)ccc32)nn1C (centres unmarked) [compound 24]"
  Target Or System: "M1 muscarinic receptor (Homo sapiens)"
  Emax: "< 65%"
- Compound: "CN(C)C(=O)N1CC2(CCN(C3CCN(c4cnccn4)CC3)CC2)c2cc(F)ccc21 [compound 444]"
  Target Or System: "M1 muscarinic receptor (Homo sapiens)"
  Emax: "65 to 85%"
- Compound: "O=C(O[C@H]1CCOC1)N1C2CCC1CC(N1CCC3(CC1)COc1ccc(F)cc13)C2 (some centres unmarked) [compound 212]"
  Target Or System: "M1 muscarinic receptor (Homo sapiens)"
  Emax: "< 65%"
- Compound: "O=C(C1CCC1)N1C2CCC1CC(N1CCC3(CC1)COc1ccc(F)cc13)C2 (centres unmarked) [compound 134]"
  Target Or System: "M1 muscarinic receptor (Homo sapiens)"
  Emax: "> 85%"
- Compound: "CCOC(=O)N1C2CCC1CC(N1CCC3(CC1)CC(=O)Nc1ccccc13)C2 (centres unmarked) [compound 56]"
  Target Or System: "M1 muscarinic receptor (Homo sapiens)"
  Emax: "65 to 85%"
- Compound: "CCOC(=O)N1C2CCC1CC(N1CCC3(CC1)CN(C(=O)O[C@@H]1CCOC1)c1ccc(F)cc13)C2 (some centres unmarked) [compound 28]"
  Target Or System: "M1 muscarinic receptor (Homo sapiens)"
  Emax: "> 85%"
- Compound: "O=C(O[C@@H]1CCOC1)N1C2CCC1CC(N1CCC3(CCc4ccccc43)CC1)C2 (some centres unmarked) [compound 43]"
  Target Or System: "M1 muscarinic receptor (Homo sapiens)"
  Emax: "> 85%"
- Compound: "CCOC(=O)N1C2CCC1CC(N1CCC3(CC1)CN(C(C)=O)c1ccc(C)cc13)C2 (centres unmarked) [compound 9]"
  Target Or System: "M1 muscarinic receptor (Homo sapiens)"
  Emax: "65 to 85%"
- Compound: "CC(=O)N1CC2(CCN(CC3CCN(C(=O)OC(C)C)CC3)CC2)c2cc(F)ccc21 [compound 202]"
  Target Or System: "M1 muscarinic receptor (Homo sapiens)"
  Emax: "65 to 85%"

Please state recorded Emax (tested on M1 muscarinic receptor (Homo sapiens)) of CCOC(=O)N1C2CCC1CC(CN1CCC3(CC1)CNc1ccc(F)cc13)C2 (centres unmarked) [compound 368]
< 65%

Moving on to CCOC(=O)N1CCC(N2CCC3(CC2)CN(C(=O)CC)c2ccc(F)cc23)CC1 [compound 317]
< 65%

Check CCOC(=O)N1CCC(N2CCC3(CC2)CN(C(=O)C2CC2)c2ccc(F)cc23)CC1 [compound 136] too.
> 85%
